# Tested on: Mast/stem cell growth factor receptor Kit (Homo sapiens), P10721 [V560G]
# Sequence (P10721 whole entry V560G): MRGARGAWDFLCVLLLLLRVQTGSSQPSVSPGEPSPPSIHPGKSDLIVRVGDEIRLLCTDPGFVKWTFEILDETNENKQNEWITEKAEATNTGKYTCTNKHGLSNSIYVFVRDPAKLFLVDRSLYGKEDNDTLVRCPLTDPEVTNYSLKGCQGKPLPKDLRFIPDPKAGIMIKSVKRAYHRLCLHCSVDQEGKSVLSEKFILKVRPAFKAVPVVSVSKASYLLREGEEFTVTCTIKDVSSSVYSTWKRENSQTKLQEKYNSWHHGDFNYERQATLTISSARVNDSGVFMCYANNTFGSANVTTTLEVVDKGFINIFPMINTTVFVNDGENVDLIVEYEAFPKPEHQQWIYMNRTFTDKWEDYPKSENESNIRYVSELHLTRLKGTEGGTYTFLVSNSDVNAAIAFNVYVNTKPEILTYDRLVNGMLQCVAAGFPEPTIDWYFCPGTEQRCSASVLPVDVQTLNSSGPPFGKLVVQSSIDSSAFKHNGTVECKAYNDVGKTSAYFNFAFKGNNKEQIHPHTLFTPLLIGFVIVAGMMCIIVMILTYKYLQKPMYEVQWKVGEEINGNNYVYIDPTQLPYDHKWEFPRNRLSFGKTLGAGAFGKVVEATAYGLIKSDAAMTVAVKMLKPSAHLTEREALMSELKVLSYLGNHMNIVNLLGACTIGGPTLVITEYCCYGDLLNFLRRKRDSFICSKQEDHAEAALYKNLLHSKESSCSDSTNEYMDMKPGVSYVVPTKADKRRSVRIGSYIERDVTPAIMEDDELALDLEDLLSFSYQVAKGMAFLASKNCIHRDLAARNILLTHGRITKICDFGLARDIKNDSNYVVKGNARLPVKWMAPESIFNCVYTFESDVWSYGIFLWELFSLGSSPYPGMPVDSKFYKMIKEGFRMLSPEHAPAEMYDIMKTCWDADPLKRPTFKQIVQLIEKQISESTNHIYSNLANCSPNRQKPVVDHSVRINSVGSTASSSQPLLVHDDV
# experimentalContext: at 0.1 µM
Known inhibition of a selection of compounds
Answer by giving the amount and then stating its unit.

{"structureString": "COc1ccc(Nc2ncc(-c3ccccc3)o2)cc1OC", "experimentalValue": "45.7%"}
{"structureString": "COC(=O)Nc1nc2ccc(Oc3ccc(NC(=O)Nc4cc(C(F)(F)F)ccc4F)cc3)cc2s1", "experimentalValue": "19.8%"}
{"structureString": "N#Cc1ccc2c(-c3ccnc(NC4CC4)n3)c(-c3ccc(F)cc3)nn2c1", "experimentalValue": "0.24%"}

Here is the next item to consider.
Which value of inhibition has been reported for Cc1c2ccc(N(C)c3ccnc(Nc4cccc(S(N)(=O)=O)c4)n3)cc2nn1C in the records? 69.9%

###

# measuredTarget: Tyrosine-protein kinase HCK (Homo sapiens) (UniProt P08631);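 note: values are averaged percent inhibition of HCK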
# Sequence (P08631 2-526 limits assumed): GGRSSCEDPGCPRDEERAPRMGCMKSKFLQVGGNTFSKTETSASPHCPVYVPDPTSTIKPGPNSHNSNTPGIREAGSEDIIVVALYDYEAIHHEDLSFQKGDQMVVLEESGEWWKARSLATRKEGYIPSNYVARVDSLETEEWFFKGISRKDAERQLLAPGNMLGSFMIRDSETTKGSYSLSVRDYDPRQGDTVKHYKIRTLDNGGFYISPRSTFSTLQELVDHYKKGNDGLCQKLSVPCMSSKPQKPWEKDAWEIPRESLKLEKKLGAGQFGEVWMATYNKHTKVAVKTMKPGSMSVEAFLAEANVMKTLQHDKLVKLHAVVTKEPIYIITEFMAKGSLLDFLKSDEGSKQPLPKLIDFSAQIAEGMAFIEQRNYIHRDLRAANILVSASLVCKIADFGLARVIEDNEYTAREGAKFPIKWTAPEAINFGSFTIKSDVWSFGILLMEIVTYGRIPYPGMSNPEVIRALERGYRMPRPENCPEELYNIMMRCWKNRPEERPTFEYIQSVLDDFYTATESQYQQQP
# experimentalContext: at 1 µM
Could you label it Condition met if measured inhibition is 7% or higher, and Condition not met otherwise?

Previously resolved entries follow.
{"structureString": "COc1c(C(N)=O)cc(-c2ccc(Cl)cc2)cc1-c1ccc(S(N)(=O)=O)cc1", "measuredTarget": "Tyrosine-protein kinase HCK (Homo sapiens) (UniProt P08631)", "discreteLabel": "Condition met"}
{"structureString": "COc1cc(N2CCN(C(C)C)CC2)ccc1Nc1nc(Nc2cccc3ncccc23)c2cc[nH]c2n1", "measuredTarget": "Tyrosine-protein kinase HCK (Homo sapiens) (UniProt P08631)", "discreteLabel": "Condition not met"}
{"structureString": "CS(=O)(=O)CCNCc1ccoc1-c1ccc2ncnc(Nc3ccc(OCc4ccccc4)cc3)c2c1", "measuredTarget": "Tyrosine-protein kinase HCK (Homo sapiens) (UniProt P08631)", "discreteLabel": "Condition not met"}
{"structureString": "CCS(=O)(=O)c1ccc(OC)c(Nc2ncc(-c3cccc(F)c3)o2)c1", "measuredTarget": "Tyrosine-protein kinase HCK (Homo sapiens) (UniProt P08631)", "discreteLabel": "Condition met"}
{"structureString": "CC1(C)CC(n2cnc(-c3ccc(F)cc3)c2-c2ccnc(N)n2)CC(C)(C)N1", "measuredTarget": "Tyrosine-protein kinase HCK (Homo sapiens) (UniProt P08631)", "discreteLabel": "Condition not met"}
{"structureString": "Cc1ccc(-c2cc3c(NC(=O)C4CC4)ncnc3o2)cc1", "measuredTarget": "Tyrosine-protein kinase HCK (Homo sapiens) (UniProt P08631)", "discreteLabel": "Condition met"}

State whether the measured inhibition reaches 7%, counting equality as reaching it, for COC(=O)Nc1nc2cc(Oc3ccc(NC(=O)Nc4ccccc4)cc3)ccc2[nH]1 Condition not met

For COc1ccc(-c2nn3ncccc3c2-c2ccnc(Nc3ccc(F)c(F)c3)n2)cc1 then? Condition met

For N#Cc1cccc(Nc2ncc(-c3ccccc3)o2)c1 then? Condition met

###

Known inhibition of a selection of compounds
# measuredTarget: Mitogen-activated protein kinase 9 (Homo sapiens);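 note: reported figure is the mean inhibition of JNK2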
# experimentalContext: at 1 µM
API: value field is a number in %; no unit string.

{"structureString": "O=C(O[C@H]1CN[C@H](C#Cc2cc3ncnc(Nc4ccc(OCc5cccc(F)c5)c(Cl)c4)c3s2)C1)N1CCOCC1", "unitsSymbol": "%", "inhibition": 7.19}
{"structureString": "COc1cccc(-n2ncc3c(N/N=C/c4ccc(C(=O)NCCN(C)C)cc4)ncnc32)c1", "unitsSymbol": "%", "inhibition": 3.96}

Which value of inhibition has been reported for CCS(=O)(=O)c1ccc(OC)c(Nc2ncc(-c3cccc(F)c3)o2)c1 in the records? 7.11

###

# measuredTarget: Platelet-derived growth factor receptor beta (Homo sapiens);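 note: each value is a mean percent inhibition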
# experimentalContext: at 1 µM
readoutKind: inhibition (%)
API: value field is a number in %; no unit string.

Reference set (3 entries):
{"structureString": "COc1ccc(-c2nn3ncccc3c2-c2ccnc(Nc3ccc(F)c(F)c3)n2)cc1", "readoutKind": "inhibition", "unitsSymbol": "%", "experimentalValue": 15.3}
{"structureString": "O=C(Nc1n[nH]c2nnc(-c3cccnc3)cc12)C1CC1", "readoutKind": "inhibition", "unitsSymbol": "%", "experimentalValue": 4.59}
{"structureString": "Cc1ccc(-c2cc3c(NC(=O)C4CC4)ncnc3o2)cc1", "readoutKind": "inhibition", "unitsSymbol": "%", "experimentalValue": 24.5}

What inhibition appears in the records for this molecule with Platelet-derived growth factor receptor beta (Homo sapiens)? N#Cc1ccc2c(-c3ccnc(NC4CC4)n3)c(-c3ccc(F)cc3)nn2c1 16.8

For COc1cccc(-n2ncc3c(N/N=C/c4ccc(C(=O)NCCN(C)C)cc4)ncnc32)c1 then? 77.6

For CC(C)c1ccc(-c2cc(-c3c[nH]nc3-c3ccccn3)ccn2)cc1 then? 11.4

###

# Tested on: Epidermal growth factor receptor (Homo sapiens), P00533 [T790M]
# Sequence (P00533 whole entry T790M): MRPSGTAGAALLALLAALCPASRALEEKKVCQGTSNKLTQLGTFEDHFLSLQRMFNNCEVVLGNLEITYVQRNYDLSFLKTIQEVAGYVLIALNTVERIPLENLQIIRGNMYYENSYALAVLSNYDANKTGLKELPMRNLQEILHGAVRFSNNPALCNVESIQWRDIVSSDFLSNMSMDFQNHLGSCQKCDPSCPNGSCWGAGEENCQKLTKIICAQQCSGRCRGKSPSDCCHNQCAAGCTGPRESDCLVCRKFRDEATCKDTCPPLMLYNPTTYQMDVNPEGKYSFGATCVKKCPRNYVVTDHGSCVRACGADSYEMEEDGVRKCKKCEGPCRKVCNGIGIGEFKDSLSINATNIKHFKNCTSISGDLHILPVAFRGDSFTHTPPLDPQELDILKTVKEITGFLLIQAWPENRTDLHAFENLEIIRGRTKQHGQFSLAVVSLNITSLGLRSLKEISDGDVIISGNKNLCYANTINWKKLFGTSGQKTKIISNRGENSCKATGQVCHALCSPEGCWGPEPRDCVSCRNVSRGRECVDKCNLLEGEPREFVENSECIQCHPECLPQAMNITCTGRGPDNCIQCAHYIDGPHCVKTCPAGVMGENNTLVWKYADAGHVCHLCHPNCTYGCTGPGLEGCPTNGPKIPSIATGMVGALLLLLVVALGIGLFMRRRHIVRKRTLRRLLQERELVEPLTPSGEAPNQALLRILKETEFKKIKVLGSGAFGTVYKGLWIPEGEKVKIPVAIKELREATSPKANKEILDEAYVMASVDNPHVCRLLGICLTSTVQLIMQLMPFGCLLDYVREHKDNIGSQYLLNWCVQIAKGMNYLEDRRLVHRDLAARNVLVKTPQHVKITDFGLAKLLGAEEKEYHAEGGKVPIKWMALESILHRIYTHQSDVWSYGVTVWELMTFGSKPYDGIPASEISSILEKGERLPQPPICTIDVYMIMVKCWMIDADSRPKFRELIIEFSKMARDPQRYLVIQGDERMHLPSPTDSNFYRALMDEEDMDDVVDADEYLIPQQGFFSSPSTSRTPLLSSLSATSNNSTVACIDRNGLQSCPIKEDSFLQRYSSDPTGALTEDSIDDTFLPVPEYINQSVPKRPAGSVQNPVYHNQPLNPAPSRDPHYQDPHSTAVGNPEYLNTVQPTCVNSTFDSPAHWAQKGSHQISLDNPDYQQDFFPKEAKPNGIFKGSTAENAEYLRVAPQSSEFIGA
# experimentalContext: at 0.1 µM
readoutKind: inhibition

Reference set (2 entries):
{"structureString": "OCCCNc1nccc(-c2c(-c3ccc(F)cc3)nn3cc(C(F)(F)F)ccc23)n1", "inhibition": "0.96%"}
{"structureString": "CS(=O)(=O)CCNCc1ccoc1-c1ccc2ncnc(Nc3ccc(OCc4ccccc4)cc3)c2c1", "inhibition": "0.03%"}

Here is the next item to consider.
Which value of inhibition has been reported for COc1ccccc1-c1cc(/C=C2\C(=O)Nc3ncc(Br)cc32)cc(Br)c1O in the records? 1.88%

###

# measuredTarget: Rhodopsin kinase GRK7 (Homo sapiens) (UniProt Q8WTQ7);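 note: reported figures are mean percent inhibition of GRK7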
# Sequence (Q8WTQ7 whole entry): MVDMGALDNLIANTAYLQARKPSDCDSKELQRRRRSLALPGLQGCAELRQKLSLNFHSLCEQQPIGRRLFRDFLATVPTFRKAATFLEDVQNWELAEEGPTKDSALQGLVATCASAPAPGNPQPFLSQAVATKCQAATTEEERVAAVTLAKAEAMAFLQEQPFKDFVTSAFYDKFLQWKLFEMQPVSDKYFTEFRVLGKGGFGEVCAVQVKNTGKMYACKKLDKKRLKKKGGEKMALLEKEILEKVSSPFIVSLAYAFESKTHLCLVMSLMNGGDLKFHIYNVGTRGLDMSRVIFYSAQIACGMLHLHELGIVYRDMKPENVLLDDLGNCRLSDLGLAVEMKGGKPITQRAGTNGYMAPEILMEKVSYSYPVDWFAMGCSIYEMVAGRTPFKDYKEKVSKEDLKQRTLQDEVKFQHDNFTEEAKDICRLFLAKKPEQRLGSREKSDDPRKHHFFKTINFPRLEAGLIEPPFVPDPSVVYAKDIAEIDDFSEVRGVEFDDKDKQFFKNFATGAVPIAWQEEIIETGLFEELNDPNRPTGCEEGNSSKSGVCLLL
# experimentalContext: at 0.1 µM
Known inhibition of a selection of molecules
API: value field is a number in %; no unit string.

Reference set (4 entries):
{"structureString": "CC(C)c1ccc(-c2cc(-c3c[nH]nc3-c3ccccn3)ccn2)cc1", "unitsSymbol": "%", "experimentalValue": 2.99}
{"structureString": "COc1cc(N2CCN(C(C)C)CC2)ccc1Nc1nc(Nc2cccc3ncccc23)c2cc[nH]c2n1", "unitsSymbol": "%", "experimentalValue": -2.45}
{"structureString": "COc1cccc(-n2ncc3c(N/N=C/c4ccc(C(=O)NCCN(C)C)cc4)ncnc32)c1", "unitsSymbol": "%", "experimentalValue": 1.52}
{"structureString": "NS(=O)(=O)c1ccc(N/N=C2\\C(=O)Nc3ccc(C(=O)NCc4ccncc4)cc32)cc1", "unitsSymbol": "%", "experimentalValue": 2.04}

Which value of inhibition has been reported for Fc1cccc(COc2ccc(Nc3ncncc3C#Cc3ccccc3)cc2Cl)c1 in the records? 5.2

###

# measuredTarget: Protein kinase C gamma type (Homo sapiens);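 note: values are mean percent inhibition of PKC gamma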
# experimentalContext: at 0.1 µM
Known inhibition of a selection of compounds
API: value field is a number in %; no unit string.

Reference set (3 entries):
{"structureString": "COc1cccc(Nc2nccc(-c3cnn4ncccc34)n2)c1", "measuredTarget": "Protein kinase C gamma type (Homo sapiens)", "inhibition / %": -1.41}
{"structureString": "FC(F)(F)CNc1nccc(-c2cnn3ncccc23)n1", "measuredTarget": "Protein kinase C gamma type (Homo sapiens)", "inhibition / %": 2}
{"structureString": "CS(=O)(=O)Nc1ccc(-c2cc(-c3ccccc3)cc(C(N)=O)c2N)cc1", "measuredTarget": "Protein kinase C gamma type (Homo sapiens)", "inhibition / %": 1.15}

What inhibition appears in the records for this compound with Protein kinase C gamma type (Homo sapiens)? COc1ccc(Nc2ncc(-c3ccccc3)o2)cc1OC 0.58

For OCCCNc1nccc(-c2c(-c3ccc(F)cc3)nn3cc(C(F)(F)F)ccc23)n1 then? 2.28

For CS(=O)(=O)Nc1ccc(-c2ccc3c(NC(=O)C4CC4)n[nH]c3c2)cc1 then? 2.49

For Cc1ccc(-c2cc3c(NC(=O)C4CC4)ncnc3o2)cc1 then? 2.91

For Fc1ccc(Nc2nccc(-c3c(-c4ccc(C(F)(F)F)cc4)nn4ncccc34)n2)cc1F then? 1.67

###

# measuredTarget: SRSF protein kinase 1 (Homo sapiens);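 note: reported values are mean percent inhibition of SRPK1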
# experimentalContext: at 1 µM
Known inhibition of a selection of compounds
API: value field is a number in %; no unit string.

Reference set (3 entries):
{"compound": "CS(=O)(=O)Nc1ccc(-c2ccc3c(NC(=O)C4CC4)n[nH]c3c2)cc1", "experimentalValue": -3.34}
{"compound": "CCOc1ccc2c(-c3ccnc(Nc4cc(OC)cc(C(F)(F)F)c4)n3)cnn2n1", "experimentalValue": -0.9}
{"compound": "COc1ccc(Nc2ncc(-c3ccccc3)o2)cc1OC", "experimentalValue": -3.33}

Which value of inhibition has been reported for CNC(=O)c1ncccc1Nc1nc(Nc2cc3c(cc2OC)CCCN3C(=O)CN(C)C)nc2[nH]ccc12 in the records? -0.43

For COc1ccccc1-c1cc(/C=C2\C(=O)Nc3ncc(Br)cc32)cc(Br)c1O then? -5.25

For O=C(O[C@H]1CN[C@H](C#Cc2cc3ncnc(Nc4ccc(OCc5cccc(F)c5)c(Cl)c4)c3s2)C1)N1CCOCC1 then? 0.44

For CS(=O)(=O)CCNCc1ccc(-c2ccc3ncnc(Nc4ccc(OCc5cccc(C(F)(F)F)c5)cc4)c3c2)o1 then? -2.32

For CC1=C(C(=O)Nc2ccc3[nH]ncc3c2)C(c2ccc(F)cc2)N=C(c2ccc(C(F)(F)F)nc2)N1 (stereo not drawn) then? -0.7

For CCS(=O)(=O)c1ccc(OC)c(Nc2ncc(-c3cccc(C(C)=O)c3)o2)c1 then? 4.89

For Cn1c(-c2nonc2N)nc2cnccc21 then? -4.33

For CC1(C)CC(n2cnc(-c3ccc(F)cc3)c2-c2ccnc(N)n2)CC(C)(C)N1 then? -1.12

For CC(C)c1ccc(-c2cc(-c3c[nH]nc3-c3ccccn3)ccn2)cc1 then? -2.44

For CCS(=O)(=O)c1ccc(OC)c(Nc2ncc(-c3cccc(F)c3)o2)c1 then? 0.45
